- Test system: LG0567-F671-PDC KRAS tumor spheroid viability;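 also: drug exposure lasted seven days after spheroids formed for three days; 100% = DMSO vehicle control viability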
- EXPERIMENT: Anticancer human tumor LG0567-F671-PDC patient-derived lung adenocarcinoma cell line growth inhibition [KRAS2]; active = viability on the fitted dose curve at most 10% of control; inactive = the rest
- EXPERIMENTAL_PARAMETERS: second compound 0.1 µM; first compound 0.0316 µM; spheroids with HUVEC and MSC
Outcome codes: yes (1) for active, no (0) for inactive

CCN1CCN(Cc2ccc(Nc3ncc(F)c(-c4cc(F)c5nc(C)n(C(C)C)c5c4)n3)nc2)CC1 + COc1cc2nc(C)nc(NC(C)c3cc(N)cc(C(F)(F)F)c3)c2cc1OC1CCOC1: no (0)
CC(=O)Nc1cccc(-n2c(=O)n(C3CC3)c(=O)c3c(Nc4ccc(I)cc4F)n(C)c(=O)c(C)c32)c1 + CC1OCC2(CCN(c3cnc(Sc4ccnc(N)c4Cl)c(N)n3)CC2)C1N: yes (1)
COC(=O)c1ccc2c(C(=Nc3ccc(N(C)C(=O)CN4CCN(C)CC4)cc3)c3ccccc3)c(O)[nH]c2c1 + CNCc1ccccc1-c1csc(C(C)Nc2nc(C)nc3cc(OC)c(OC)cc23)c1: no (0)
